The measurements presented in this section are drawn from paper PMC10397247.

- tested.target: T1, 4H3606-bA
- T1 chain: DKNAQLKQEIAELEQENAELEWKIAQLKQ
- test.description: two-hybrid library CCNG1;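 further: natural log of median RNA to DNA barcode read ratio; higher means stronger binding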
measured.parameter: interaction score

Illustrative cases are given below, each with its answer.
1) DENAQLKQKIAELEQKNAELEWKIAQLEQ [4H1845-bA]    -1.46
2) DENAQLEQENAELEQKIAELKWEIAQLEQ [4H1193-bA]    -0.984
3) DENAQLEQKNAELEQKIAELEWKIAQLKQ [4H1446-bA]    0.144
4) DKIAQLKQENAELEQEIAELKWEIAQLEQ [4H2697-bA]    -1.7
5) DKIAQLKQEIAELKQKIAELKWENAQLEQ [4H2667-bA]    0.0163

[A] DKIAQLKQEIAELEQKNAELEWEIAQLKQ [4H2610-bA]
[B] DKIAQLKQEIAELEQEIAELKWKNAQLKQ [4H2576-bA]
Could you tell me which of A and B has the lower interaction score reading? Answer = label.
B
(B: -0.614, A: 0.322)
